Molecular target: T1, GST-RHAU(WT) (Homo sapiens, UniProt Q9H2U1 1-1008)
T1 sequence: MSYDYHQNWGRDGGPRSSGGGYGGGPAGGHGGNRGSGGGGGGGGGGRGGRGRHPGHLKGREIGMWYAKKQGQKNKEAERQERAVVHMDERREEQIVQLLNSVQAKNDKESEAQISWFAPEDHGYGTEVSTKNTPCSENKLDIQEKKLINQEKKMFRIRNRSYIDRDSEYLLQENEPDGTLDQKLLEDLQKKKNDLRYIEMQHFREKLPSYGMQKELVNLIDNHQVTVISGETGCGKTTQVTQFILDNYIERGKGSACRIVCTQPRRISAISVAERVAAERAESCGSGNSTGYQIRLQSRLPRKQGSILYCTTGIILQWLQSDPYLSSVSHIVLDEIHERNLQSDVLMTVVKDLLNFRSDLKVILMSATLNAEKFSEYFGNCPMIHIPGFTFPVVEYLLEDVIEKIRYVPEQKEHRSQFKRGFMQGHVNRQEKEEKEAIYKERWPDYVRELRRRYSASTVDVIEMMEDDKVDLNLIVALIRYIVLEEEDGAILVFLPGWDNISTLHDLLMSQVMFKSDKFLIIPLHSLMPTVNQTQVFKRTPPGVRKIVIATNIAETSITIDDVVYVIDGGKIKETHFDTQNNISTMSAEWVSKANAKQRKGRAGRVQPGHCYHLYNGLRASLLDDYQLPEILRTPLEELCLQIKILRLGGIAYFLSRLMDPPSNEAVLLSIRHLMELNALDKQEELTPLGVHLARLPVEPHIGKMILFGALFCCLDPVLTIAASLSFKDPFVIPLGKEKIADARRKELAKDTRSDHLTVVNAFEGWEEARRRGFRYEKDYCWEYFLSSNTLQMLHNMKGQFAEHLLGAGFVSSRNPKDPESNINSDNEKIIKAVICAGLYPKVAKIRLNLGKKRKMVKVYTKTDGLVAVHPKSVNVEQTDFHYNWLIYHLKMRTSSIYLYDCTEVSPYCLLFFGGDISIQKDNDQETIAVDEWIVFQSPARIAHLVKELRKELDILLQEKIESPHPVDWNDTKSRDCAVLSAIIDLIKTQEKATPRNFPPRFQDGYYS
Assay: EMSA
pKd: −log10 of the molar value.
metric.name: pKd

binder="AAAAAAAAAAAAAAAGGGGGAAAAAAAAAAAAAAA (structured_RNA) [tetramolecular G4-rAGA]" result_value=7.85
